target or system: full-length FLAG-KDM5A (Homo sapiens, UniProt P29375)
Construct: Sf21 insect cells were infected with baculovirus to express full-length FLAG-KDM5A; made in house; host or cells: Sf21 insect cells (baculovirus)
Sequence (P29375 whole entry): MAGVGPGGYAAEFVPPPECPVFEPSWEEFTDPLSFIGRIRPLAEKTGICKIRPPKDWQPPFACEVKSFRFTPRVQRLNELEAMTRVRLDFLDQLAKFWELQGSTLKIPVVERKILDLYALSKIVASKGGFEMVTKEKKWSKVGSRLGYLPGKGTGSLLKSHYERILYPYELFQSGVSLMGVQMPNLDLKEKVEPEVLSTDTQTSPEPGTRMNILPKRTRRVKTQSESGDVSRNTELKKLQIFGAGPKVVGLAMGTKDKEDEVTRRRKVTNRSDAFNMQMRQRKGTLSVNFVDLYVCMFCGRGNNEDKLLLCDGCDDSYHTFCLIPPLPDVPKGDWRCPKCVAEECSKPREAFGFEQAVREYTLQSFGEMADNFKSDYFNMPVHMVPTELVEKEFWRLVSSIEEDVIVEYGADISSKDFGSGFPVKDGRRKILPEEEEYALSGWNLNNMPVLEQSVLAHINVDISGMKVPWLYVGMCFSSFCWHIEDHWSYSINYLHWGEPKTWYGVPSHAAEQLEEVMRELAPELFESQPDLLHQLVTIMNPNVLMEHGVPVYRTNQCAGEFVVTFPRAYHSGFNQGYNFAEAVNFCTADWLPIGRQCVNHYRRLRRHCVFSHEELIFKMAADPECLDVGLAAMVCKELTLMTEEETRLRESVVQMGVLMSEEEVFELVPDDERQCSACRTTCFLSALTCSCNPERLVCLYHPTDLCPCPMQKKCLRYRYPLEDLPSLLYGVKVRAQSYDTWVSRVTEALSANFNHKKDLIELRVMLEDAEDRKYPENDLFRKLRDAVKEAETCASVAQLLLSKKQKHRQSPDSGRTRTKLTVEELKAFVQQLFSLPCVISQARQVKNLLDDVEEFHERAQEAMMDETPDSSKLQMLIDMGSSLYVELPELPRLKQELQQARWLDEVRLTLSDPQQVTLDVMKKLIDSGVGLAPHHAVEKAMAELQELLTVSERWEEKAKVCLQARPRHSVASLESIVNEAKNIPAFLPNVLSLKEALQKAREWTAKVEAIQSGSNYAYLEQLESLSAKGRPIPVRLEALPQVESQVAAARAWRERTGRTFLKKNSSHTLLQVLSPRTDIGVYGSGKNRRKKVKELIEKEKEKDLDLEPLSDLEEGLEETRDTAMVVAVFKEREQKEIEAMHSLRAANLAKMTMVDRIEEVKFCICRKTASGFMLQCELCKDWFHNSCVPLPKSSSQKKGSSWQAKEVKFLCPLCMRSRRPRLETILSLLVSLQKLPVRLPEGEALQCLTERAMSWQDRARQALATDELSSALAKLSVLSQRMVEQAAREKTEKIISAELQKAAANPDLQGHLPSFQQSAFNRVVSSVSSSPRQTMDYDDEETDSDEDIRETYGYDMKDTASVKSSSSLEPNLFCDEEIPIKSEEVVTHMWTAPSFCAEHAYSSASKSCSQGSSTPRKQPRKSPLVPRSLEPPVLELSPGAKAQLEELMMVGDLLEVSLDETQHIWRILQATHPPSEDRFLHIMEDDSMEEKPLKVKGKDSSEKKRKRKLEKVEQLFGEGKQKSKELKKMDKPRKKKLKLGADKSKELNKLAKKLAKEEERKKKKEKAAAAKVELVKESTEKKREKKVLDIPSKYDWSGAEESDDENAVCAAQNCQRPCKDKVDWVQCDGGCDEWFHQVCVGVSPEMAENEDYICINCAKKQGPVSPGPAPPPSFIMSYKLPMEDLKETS
assay name: AlphaScreen KDM5A demethylation assay (bio-H3K4me3 peptide)
Type: biochemical
condition parameters: inhibitors found by high throughput screening; read-out: KDM5A IC50
recorded endpoint: IC50
Answer with the value and then the unit.

Worked cases, IC50 given:
C=CCn1c(S)nnc1CNC(=O)c1cccc(C)c1 [YUKA2] : 2660 nM
COc1cccc(Cc2nnc(S)n2-c2ccc(Cl)cc2)c1 [YU017175] : 57 nM
CCn1c(S)nnc1CNC(=O)c1cccc(C)c1 [YU126648] : 159 nM

In plain terms, COc1cccc(Cc2nnc(S)n2Cc2ccco2)c1 [YU017176] has a documented IC50 of 1760 nM

In plain terms, C=CCOc1c(CNn2cnnc2S)cccc1OC [YUKA1] has a documented IC50 of 1320 nM

In plain terms, Cc1cccc(-n2c(C)nnc2S)c1 [YU128402] has a documented IC50 of 79 nM

In plain terms, C=CCn1c(S)nnc1-c1cccnc1 [YU125526] has a documented IC50 of 197 nM

In plain terms, CCCCSCCc1nnc(S)n1-c1ccccc1 [YU149596] has a documented IC50 of 169 nM
